Task for the reader: assign each of the following compounds its reported EC50.
molecular target: Progesterone receptor (Homo sapiens, UniProt P06401); assay: Agonistic activity was measured for modulation of hPR-B (human progesterone receptor) in co-transfected CV-1 cells.
Sequence (P06401 whole entry): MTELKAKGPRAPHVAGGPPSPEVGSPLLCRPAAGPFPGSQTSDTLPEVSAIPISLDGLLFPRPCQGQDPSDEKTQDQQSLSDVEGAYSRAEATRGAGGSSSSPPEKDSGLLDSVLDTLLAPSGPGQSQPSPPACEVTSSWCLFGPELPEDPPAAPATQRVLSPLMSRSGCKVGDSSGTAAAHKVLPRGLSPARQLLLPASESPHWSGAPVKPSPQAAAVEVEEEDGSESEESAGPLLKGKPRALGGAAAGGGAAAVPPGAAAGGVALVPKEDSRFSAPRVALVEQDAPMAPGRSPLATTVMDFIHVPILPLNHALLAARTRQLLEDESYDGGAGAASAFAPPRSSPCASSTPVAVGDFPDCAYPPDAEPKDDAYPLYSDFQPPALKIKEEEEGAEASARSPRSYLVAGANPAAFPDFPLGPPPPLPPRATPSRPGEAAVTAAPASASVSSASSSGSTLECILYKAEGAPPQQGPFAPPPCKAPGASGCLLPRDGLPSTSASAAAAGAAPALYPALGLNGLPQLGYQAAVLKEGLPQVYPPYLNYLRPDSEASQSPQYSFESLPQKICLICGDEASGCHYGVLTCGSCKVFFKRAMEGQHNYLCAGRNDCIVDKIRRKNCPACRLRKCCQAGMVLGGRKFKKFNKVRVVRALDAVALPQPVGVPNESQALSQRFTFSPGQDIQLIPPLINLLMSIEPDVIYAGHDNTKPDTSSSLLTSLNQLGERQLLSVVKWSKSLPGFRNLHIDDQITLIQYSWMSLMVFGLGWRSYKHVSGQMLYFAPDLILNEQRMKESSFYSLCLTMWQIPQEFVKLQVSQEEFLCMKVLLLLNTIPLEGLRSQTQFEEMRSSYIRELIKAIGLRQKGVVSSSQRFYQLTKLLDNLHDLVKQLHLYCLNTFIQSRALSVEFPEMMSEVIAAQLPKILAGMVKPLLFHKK
Numbers only, in nM.

• CC1=CC(C)(C)Nc2ccc3c(c21)C(c1ccc(Cl)cc1)Oc1ccc(Cl)cc1-3 (centres undefined) = 9
• CC1=CC(C)(C)Nc2ccc3c(c21)C(c1ccccc1)Oc1ccc(F)cc1-3 (centres undefined) = 7.4
• CC1=CC(C)(C)Nc2ccc3c(c21)C(c1cccc(C(F)(F)F)c1)Oc1ccc(F)cc1-3 (centres undefined) = 10
• CC1=CC(C)(C)Nc2ccc3c(c21)C(c1ccc(Cl)cc1)Oc1ccccc1-3 (centres undefined) = 15

Please state EC50 for every compound in the list that follows.
1. CC1=CC(C)(C)Nc2ccc3c(c21)C(c1cccc(Cl)c1)Oc1ccc(Cl)cc1-3 (centres undefined)
2. CC1=CC(C)(C)Nc2ccc3c(c21)C(c1ccc(Cl)c(C)c1)Oc1ccc(F)cc1-3 (centres undefined)
3. COc1ccc2c(c1)-c1ccc3c(c1C(c1ccc(Cl)cc1)O2)C(C)=CC(C)(C)N3 (centres undefined)
4. CC1=CC(C)(C)Nc2ccc3c(c21)C(c1cccc(Cl)c1)Oc1ccc(F)cc1-3 (centres undefined)

Data returned:
1: 3.6; 2: 2.7; 3: 3.1; 4: 2.8

Data request: Entry CC1=CC(C)(C)Nc2ccc3c(c21)C(c1ccc(Cl)cc1)Oc1cc(F)ccc1-3 (centres undefined) : reported EC50 = ?
Data returned: 10

====

Task for the reader: assign each of the following molecules its reported Ki.
molecular target: UniProtKB P06401; assay: The binding affinity measured using baculovirus-expressed hPR-A in sf21 cells.
Numbers only, in pM.

Consider the reported Ki for these molecules:
- CC1=CC(C)(C)Nc2ccc3c(c21)C(c1ccc(F)c(C)c1)Oc1ccc(Cl)cc1-3 (centres undefined): 1300
- CC1=CC(C)(C)Nc2ccc3c(c21)C(c1ccc(Cl)cc1)Oc1cc(F)ccc1-3 (centres undefined): 2700
- COc1ccc(C2Oc3ccc(F)cc3-c3ccc4c(c32)C(C)=CC(C)(C)N4)cc1 (centres undefined): 2700
- CC1=CC(C)(C)Nc2ccc3c(c21)C(c1ccc(Cl)cc1)Oc1ccc(Cl)cc1-3 (centres undefined): 590
- CC1=CC(C)(C)Nc2ccc3c(c21)C(c1cccc(Cl)c1)Oc1ccc(Cl)cc1-3 (centres undefined): 480

Please state Ki for every molecule in the list that follows.
1. CC1=CC(C)(C)Nc2ccc3c(c21)C(c1ccc(F)c(C)c1)Oc1ccc(F)cc1-3 (centres undefined)
2. CC1=CC(C)(C)Nc2ccc3c(c21)C(c1ccc(Cl)c(C)c1)Oc1ccc(Cl)cc1-3 (centres undefined)

Data returned:
1. 1300
2. 500

Please state Ki for every molecule in the list that follows.
1. CC1=CC(C)(C)Nc2ccc3c(c21)C(c1ccccc1)Oc1ccc(Cl)cc1-3 (centres undefined)
2. CC1=CC(C)(C)Nc2ccc3c(c21)C(c1cccc(C)c1)Oc1ccc(F)cc1-3 (centres undefined)

Data returned:
[740, 370]

====

target: Progesterone receptor (Homo sapiens); experiment: The binding affinity measured using baculovirus-expressed hPR-A in sf21 cells.
Attribute measured: Ki (pM)
Answers are plain numbers, in pM.

* CC1=CC(C)(C)Nc2ccc3c(c21)C(c1ccc(Br)cc1)Oc1ccc(Cl)cc1-3 (stereo unspecified) | 590
* CC1=CC(C)(C)Nc2ccc3c(c21)C(c1ccc(Cl)c(C)c1)Oc1ccc(F)cc1-3 (stereo unspecified) | 490
* CC1=CC(C)(C)Nc2ccc3c(c21)C(c1cccc(C(F)(F)F)c1)Oc1ccc(Cl)cc1-3 (stereo unspecified) | 1100
* COc1ccc2c(c1)-c1ccc3c(c1C(c1ccc(Cl)cc1)O2)C(C)=CC(C)(C)N3 (stereo unspecified) | 2400
* COc1ccc(C2Oc3ccc(Cl)cc3-c3ccc4c(c32)C(C)=CC(C)(C)N4)cc1 (stereo unspecified) | 930
* CC1=CC(C)(C)Nc2ccc3c(c21)C(c1cccc(F)c1)Oc1ccc(Cl)cc1-3 (stereo unspecified) | 340
* CC1=CC(C)(C)Nc2ccc3c(c21)C(c1cccc(Cl)c1)Oc1ccc(F)cc1-3 (stereo unspecified) | 320
* CC1=CC(C)(C)Nc2ccc3c(c21)C(c1cccc(C(F)(F)F)c1)Oc1ccc(F)cc1-3 (stereo unspecified) | 780
* CC1=CC(C)(C)Nc2ccc3c(c21)C(c1cccc(C)c1)Oc1ccc(Cl)cc1-3 (stereo unspecified) | 550
* CC1=CC(C)(C)Nc2ccc3c(c21)C(c1ccc(Cl)cc1)Oc1ccc(F)cc1-3 (stereo unspecified) | 320

Data request: Entry CC1=CC(C)(C)Nc2ccc3c(c21)C(c1ccccc1)Oc1ccc(F)cc1-3 (stereo unspecified) : reported Ki = ?
Data returned: 2200

====

biological target: UniProt:P06401; test: Agonistic activity was measured for modulation of hPR-B (human progesterone receptor) in co-transfected CV-1 cells.; type: functional, cell-based
Task for the reader: assign each of the following compounds its reported pEC50.
One number for each entry, as −log10 of the molar value.

Consider the reported pEC50 for these compounds:
• CC1=CC(C)(C)Nc2ccc3c(c21)C(c1ccc(F)c(C)c1)Oc1ccc(Cl)cc1-3 (stereo not given) = 8.02
• CC1=CC(C)(C)Nc2ccc3c(c21)C(c1cccc(C)c1)Oc1ccc(F)cc1-3 (stereo not given) = 8.30
• CC1=CC(C)(C)Nc2ccc3c(c21)C(c1ccc(F)c(C)c1)Oc1ccc(F)cc1-3 (stereo not given) = 7.82
• CC1=CC(C)(C)Nc2ccc3c(c21)C(c1ccccc1)Oc1ccc(Cl)cc1-3 (stereo not given) = 8.16
• COc1ccc(C2Oc3ccc(F)cc3-c3ccc4c(c32)C(C)=CC(C)(C)N4)cc1 (stereo not given) = 6.57

Please state pEC50 for every compound in the list that follows.
1. CC1=CC(C)(C)Nc2ccc3c(c21)C(c1cccc(C)c1)Oc1ccc(Cl)cc1-3 (stereo not given)
2. CC1=CC(C)(C)Nc2ccc3c(c21)C(c1cccc(F)c1)Oc1ccc(Cl)cc1-3 (stereo not given)
3. COc1ccc(C2Oc3ccc(Cl)cc3-c3ccc4c(c32)C(C)=CC(C)(C)N4)cc1 (stereo not given)
4. CC1=CC(C)(C)Nc2ccc3c(c21)C(c1ccc(Br)cc1)Oc1ccc(Cl)cc1-3 (stereo not given)

Data returned:
[8.15, 8.43, 7.89, 8.28]

Data request: Report pEC50 for CC1=CC(C)(C)Nc2ccc3c(c21)C(c1ccc(Cl)cc1)Oc1ccc(F)cc1-3 (stereo not given) tested on UniProt:P06401.
Data returned: 8.09
